- target: mouse heart mitochondrial membranes (complex I) (Mus musculus, UniProt P03888+P03899+Q91WD5+Q9DC70)
- Sequence (P03899 whole entry): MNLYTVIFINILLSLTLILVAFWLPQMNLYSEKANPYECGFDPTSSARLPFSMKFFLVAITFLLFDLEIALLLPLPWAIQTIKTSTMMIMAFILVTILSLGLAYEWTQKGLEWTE
- Sequence (P03888 whole entry): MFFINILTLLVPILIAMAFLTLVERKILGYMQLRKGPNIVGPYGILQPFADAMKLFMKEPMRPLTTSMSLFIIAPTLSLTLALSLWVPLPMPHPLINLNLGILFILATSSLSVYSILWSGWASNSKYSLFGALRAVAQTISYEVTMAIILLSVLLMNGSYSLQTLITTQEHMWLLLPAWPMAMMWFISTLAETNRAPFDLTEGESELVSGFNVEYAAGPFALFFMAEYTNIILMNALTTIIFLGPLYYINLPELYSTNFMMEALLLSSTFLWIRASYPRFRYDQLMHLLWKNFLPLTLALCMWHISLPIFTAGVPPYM
- Sequence (Q9DC70 36-224): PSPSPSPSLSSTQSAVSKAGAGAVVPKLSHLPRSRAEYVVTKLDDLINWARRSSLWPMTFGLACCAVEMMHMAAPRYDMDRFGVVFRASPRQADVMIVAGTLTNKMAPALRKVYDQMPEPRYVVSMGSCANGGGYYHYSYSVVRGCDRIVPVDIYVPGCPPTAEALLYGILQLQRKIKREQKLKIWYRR
- Sequence (Q91WD5 34-463): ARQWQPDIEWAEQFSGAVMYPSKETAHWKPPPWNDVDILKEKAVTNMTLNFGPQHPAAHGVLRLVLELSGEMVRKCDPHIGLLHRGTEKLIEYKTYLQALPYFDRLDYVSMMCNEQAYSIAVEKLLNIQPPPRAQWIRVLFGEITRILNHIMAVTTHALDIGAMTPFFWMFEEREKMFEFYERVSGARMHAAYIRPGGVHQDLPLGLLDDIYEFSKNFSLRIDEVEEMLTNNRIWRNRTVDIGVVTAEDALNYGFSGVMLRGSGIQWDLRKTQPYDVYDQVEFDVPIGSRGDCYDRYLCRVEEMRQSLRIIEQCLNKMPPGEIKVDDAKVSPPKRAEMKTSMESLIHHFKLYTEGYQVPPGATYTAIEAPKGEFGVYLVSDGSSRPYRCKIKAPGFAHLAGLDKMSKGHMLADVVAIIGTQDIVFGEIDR
- experimentNotes: NADH:O2 oxidoreduction by mouse heart mitochondrial membranes
- Format: biochemical
- assayContext: Prism variable slope fit
Rule: HillSlope (best fit value) below -1 gives Met, anything at or above gives Not met.

Enquiry: Consider "NC(N)=NC(N)=NCCc1ccc(Cl)cc1" . Does its HillSlope (best fit value) lie strictly below -1?
Return: Not met

Enquiry: Record [H]/N=C(/N)N/C(=N/[H])NCCc1ccccc1 [phenformin, reference compound] : is its HillSlope (best fit value) strictly below -1?
Return: Not met

Enquiry: Determine whether this compound shows HillSlope (best fit value) lower than -1 (ties excluded): "NC(N)=NC(N)=NCc1ccccc1"
Return: Met

Enquiry: Identify whether the compound "CC(C)N=C(N)N=C(N)NC(C)C" records HillSlope (best fit value) below -1.
Return: Met

Enquiry: Lab note: HillSlope (best fit value) threshold -1. Does this compound come in strictly under it? N=C(N)NC(N)=Nc1ccccc1 [compound 2, phenyl biguanide]
Return: Met

Enquiry: Please state whether HillSlope (best fit value) is below -1 for "CC(C)N=C(N)N=C(N)N"
Return: Met

Enquiry: Hello, is HillSlope (best fit value) of the following compound strictly smaller than -1? [H]/N=C(\N/C(=N/[H])Nc1ccc(Cl)cc1)NC(C)C [proguanil, reference compound]
Return: Not met

====

- target: bovine heart mitochondrial membranes (complex I) (Bos taurus, UniProt P03887+P03898+P17694+P42026)
- Sequence (P42026 38-216): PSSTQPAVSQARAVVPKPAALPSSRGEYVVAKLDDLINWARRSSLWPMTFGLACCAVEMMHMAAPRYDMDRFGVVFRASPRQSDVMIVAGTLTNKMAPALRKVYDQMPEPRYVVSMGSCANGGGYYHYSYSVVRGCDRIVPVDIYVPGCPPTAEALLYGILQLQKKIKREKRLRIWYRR
- Sequence (P17694 34-463): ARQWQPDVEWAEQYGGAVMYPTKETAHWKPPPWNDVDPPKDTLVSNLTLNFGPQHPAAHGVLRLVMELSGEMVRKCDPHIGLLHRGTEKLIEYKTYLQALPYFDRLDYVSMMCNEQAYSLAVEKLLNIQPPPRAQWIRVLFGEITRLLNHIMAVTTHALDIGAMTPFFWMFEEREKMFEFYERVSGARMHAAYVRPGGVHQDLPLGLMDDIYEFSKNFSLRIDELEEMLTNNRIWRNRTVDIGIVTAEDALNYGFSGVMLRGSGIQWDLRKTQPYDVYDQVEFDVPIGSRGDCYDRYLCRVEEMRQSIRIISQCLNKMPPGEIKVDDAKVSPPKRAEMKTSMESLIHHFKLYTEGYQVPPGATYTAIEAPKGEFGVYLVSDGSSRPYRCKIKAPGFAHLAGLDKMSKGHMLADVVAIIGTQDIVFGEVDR
- Sequence (P03887 whole entry): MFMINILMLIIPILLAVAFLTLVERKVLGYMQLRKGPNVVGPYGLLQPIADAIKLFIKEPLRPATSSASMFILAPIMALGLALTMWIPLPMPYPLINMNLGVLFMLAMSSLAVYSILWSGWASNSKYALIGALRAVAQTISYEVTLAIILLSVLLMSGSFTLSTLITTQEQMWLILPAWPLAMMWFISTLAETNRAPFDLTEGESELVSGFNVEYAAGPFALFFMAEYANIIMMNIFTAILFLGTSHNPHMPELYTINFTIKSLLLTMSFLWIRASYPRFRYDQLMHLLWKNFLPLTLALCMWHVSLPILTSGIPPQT
- Sequence (P03898 whole entry): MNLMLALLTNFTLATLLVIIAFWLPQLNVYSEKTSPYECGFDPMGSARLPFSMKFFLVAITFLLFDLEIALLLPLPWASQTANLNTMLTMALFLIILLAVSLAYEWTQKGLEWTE
- experimentNotes: NADH:O2 oxidoreduction by bovine heart mitochondrial membranes (complexes I-III-IV)
- Assay type: biochemical
- assayContext: bovine heart mitochondrial membranes; inhibitor 0.025 mM; read-out: average % (rate, % of no-inhibitor control)
measure: remaining activity at 25 µM (%)
# number only, unit % dropped from output

Enquiry: Identify the reported remaining activity at 25 µM for the following entry. "N=C(N)N=C(N)Nc1ccccc1"
Return: 91.2

Enquiry: // fetch remaining activity at 25 µM given entry "CC(C)N=C(N)N=C(N)NC(C)C"
Return: 88.2

Enquiry: // Input: [H]/N=C(\N/C(=N/[H])Nc1ccc(Cl)cc1)NC(C)C [proguanil, reference compound] . Output its remaining activity at 25 µM only.
Return: 41.4

Enquiry: Return value of remaining activity at 25 µM for input "NC(N)=NC(N)=NCCc1ccc(Cl)cc1" , no commentary.
Return: 91.4

====

- System: bovine mitochondrial membranes (complexes II-III-IV)
- experimentNotes: Succinate:O2 oxidoreduction (complexes II-III-IV, complex II assay) by bovine mitochondrial membranes
- Assay type: biochemical, Bos taurus
- assayContext: biguanide concentrations set to the IC50 values for NADH:O2 on bovine membranes; control = 100.00; n = 3
measure: Complex II assay (succinate:O2 oxidoreduction), average

Enquiry: Please list Complex II assay (succinate:O2 oxidoreduction), average recorded for the molecule [H]/N=C(\N/C(=N/[H])Nc1ccc(Cl)cc1)NC(C)C [proguanil, reference compound]
Return: 95.35

Enquiry: Specify reported Complex II assay (succinate:O2 oxidoreduction), average for the molecule shown: "CC(C)N=C(N)N=C(N)NC(C)C"
Return: 100.71

Enquiry: Determine from records and report Complex II assay (succinate:O2 oxidoreduction), average for N=C(N)NC(N)=Nc1ccccc1 [compound 2, phenyl biguanide]
Return: 92.05

Enquiry: Tell me measured Complex II assay (succinate:O2 oxidoreduction), average for [H]/N=C(/N)N/C(=N/[H])NCCc1ccccc1 [phenformin, reference compound] please.
Return: 95.51

Enquiry: Specify Complex II assay (succinate:O2 oxidoreduction), average for "CC(C)N=C(N)N=C(N)N" and stop.
Return: 101.59
